measurement_notes: Stability against liver microsomes
Format: in vitro ADME, human
condition_parameters: 2 μM, 37° C., 24 h
Would you mind labelling by % degradation in 24 h when incubated with liver microsomes? At or over 80% is satisfied, under is not satisfied.

Worked examples, 3 compounds total:
1) CCc1cc(OC)ccc1-c1ccc(CC(NC(=O)[C@H](CC(=O)O)NC(=O)[C@H](CO)NC(=O)[C@@H](NC(=O)C(C)(Cc2ccccc2F)NC(=O)[C@@H](NC(=O)CNC(=O)[C@H](CCC(N)=O)NC(=O)C(C)(C)NC(=O)[C@@H](N)Cc2c[nH]cn2)[C@@H](C)O)[C@@H](C)O)C(=O)NC(Cc2ccc(-c3ccccc3C)cc2)C(N)=O)cc1 (single isomer, unassigned) [compound 29]; not satisfied
2) CCc1cc(OC)ccc1-c1ccc(CC(NC(=O)[C@H](CC(=O)O)NC(=O)[C@H](CO)NC(=O)[C@@H](NC(=O)C(C)(Cc2ccccc2F)NC(=O)[C@@H](NC(=O)CNC(=O)[C@H](CCC(N)=O)NC(=O)[C@H](C)NC(=O)[C@@H](N)Cc2c[nH]cn2)[C@@H](C)O)[C@@H](C)O)C(=O)NC(Cc2ccc(-c3ccccc3F)cc2)C(N)=O)cc1 (single isomer, unassigned) [compound 27]; not satisfied
3) CCc1cc(OC)ccc1-c1ccc(CC(NC(=O)[C@H](CC(=O)O)NC(=O)[C@H](CO)NC(=O)[C@@H](NC(=O)C(C)(Cc2ccccc2F)NC(=O)[C@@H](NC(=O)CNC(=O)[C@H](CCC(N)=O)NC(=O)C2(NC(=O)[C@@H](N)Cc3c[nH]cn3)CC2)[C@@H](C)O)[C@@H](C)O)C(=O)NC(Cc2ccc(-c3ccccc3C(F)(F)F)cc2)C(N)=O)cc1 (single isomer, unassigned) [compound 36]; not satisfied

Test whether the compound CCc1cc(OC)ccc1-c1ccc(CC(NC(=O)[C@H](CC(=O)O)NC(=O)[C@H](CO)NC(=O)[C@@H](NC(=O)[C@H](Cc2ccccc2)NC(=O)[C@@H](NC(=O)CNC(=O)[C@H](CCC(N)=O)NC(=O)[C@H](C)NC(=O)[C@@H](N)Cc2c[nH]cn2)[C@@H](C)O)[C@@H](C)O)C(=O)NC(Cc2ccc(-c3ccccc3F)cc2)C(N)=O)cc1 (single isomer, unassigned) [compound 11] records % degradation in 24 h when incubated with liver microsomes of 80% or higher.
satisfied

Tell me whether % degradation in 24 h when incubated with liver microsomes is at least 80% here: CCc1cc(OC)ccc1-c1ccc(CC(NC(=O)[C@H](CC(=O)O)NC(=O)[C@H](CO)NC(=O)[C@@H](NC(=O)[C@H](Cc2ccccc2)NC(=O)[C@@H](NC(=O)CNC(=O)[C@H](CCC(N)=O)NC(=O)[C@H](C)NC(=O)[C@@H](N)Cc2c[nH]cn2)[C@@H](C)O)[C@@H](C)O)C(=O)NC(Cc2ccc(-c3ccccc3C)nc2)C(N)=O)cc1 (single isomer, unassigned) [compound 10]
satisfied

Could you tell me if the measured % degradation in 24 h when incubated with liver microsomes of CCc1cc(OC)ccc1-c1ccc(CC(NC(=O)[C@H](CC(=O)O)NC(=O)[C@H](CO)NC(=O)[C@@H](NC(=O)[C@H](Cc2ccccc2)NC(=O)[C@@H](NC(=O)CNC(=O)[C@H](CCC(N)=O)NC(=O)[C@H](C)NC(=O)[C@@H](N)Cc2c[nH]cn2)[C@@H](C)O)[C@@H](C)O)C(=O)NC(Cc2ccc(-c3ccccc3C(F)(F)F)cc2)C(N)=O)cc1 (single isomer, unassigned) [compound 12] reaches 80% or more?
satisfied

Determine whether measured % degradation in 24 h when incubated with liver microsomes meets or exceeds 80% for CCc1cc(OC)ccc1-c1ccc(CC(NC(=O)[C@H](CC(=O)O)NC(=O)[C@H](CO)NC(=O)[C@@H](NC(=O)C(C)(Cc2ccccc2F)NC(=O)[C@@H](NC(=O)CNC(=O)[C@H](CCC(N)=O)NC(=O)C2(NC(=O)[C@@H](N)Cc3c[nH]cn3)CC2)[C@@H](C)O)[C@@H](C)O)C(=O)NC(Cc2ccc(-c3ccccc3C)nc2)C(N)=O)cc1 (single isomer, unassigned) [compound 34]
not satisfied

Reported % degradation in 24 h when incubated with liver microsomes at or above 80%? CCc1cc(OC)ccc1-c1ccc(CC(NC(=O)[C@H](CC(=O)O)NC(=O)[C@H](CO)NC(=O)[C@@H](NC(=O)C(C)(Cc2ccccc2F)NC(=O)[C@@H](NC(=O)CNC(=O)[C@H](CCC(N)=O)NC(=O)C(C)(C)NC(=O)[C@@H](N)Cc2c[nH]cn2)[C@@H](C)O)[C@@H](C)O)C(=O)NC(Cc2ccc(-c3ccccc3C(F)(F)F)cc2)C(N)=O)cc1 (single isomer, unassigned) [compound 32]
not satisfied
